Provide the recorded GI50 for the entries that follow.
Tested on: SN12C
Assay: NCI tumour cell line growth inhibition, 48 h
Activity calls are given as the source filed them. No stated cut-off is given here; in the data, active = GI50 up to about 1.1 µM and inactive = higher.

- Compound: "CC1C2CC(CC(=O)N2)C1(C)C (configuration not stated)"
  GI50: "> 100 µM (inactive)"

Would you be so kind as to report GI50 for each listed record?
1. O=c1ccc2ccccc2o1
2. CSc1ccc2c(c1)c(CCN)c(C)n2Cc1ccccc1Cl
3. O=C(/C=C/c1ccccc1)CCC1C(=O)NC(=S)NC1=O
4. COC(=O)[C@]1(C)CCCC2(C)C1CC[C@H]1C=C(C)[C@H]3CCC12C3 (some centres not stated)
5. FC(F)(Sc1ncc[nH]1)c1nc2ccccc2o1
6. O=C(c1ccccc1)n1[nH]c(=O)n(-c2ccc(Cl)cc2)c1=O

(A)
["> 100 µM (inactive)", "1.58 µM (inactive)", "> 100 µM (inactive)", "> 100 µM (inactive)", "> 100 µM (inactive)", "> 100 µM (inactive)"]

Would you be so kind as to report GI50 for each listed record?
1. O=C1c2cc3c(cc2CC12Cc1cc4c(cc1C2=O)CCC4)CCC3
2. O=[N+]([O-])c1ccc(Cl)c(/C=N/C23CC4CC(CC(C4)C2)C3)c1
3. Cc1cc2c(c(S(=O)(=O)c3ccccc3[N+](=O)[O-])c1)NCCC2
4. N#Cc1c2c(c(Cl)n3c1nc1ccccc13)CCCC2
5. Clc1nc(Cl)c(CBr)c(Cl)n1

(A)
1. > 100 µM (inactive)
2. > 10 µM (inactive)
3. 76.4 µM (inactive)
4. 2.09 µM (inactive)
5. 2.63 µM (inactive)

----------
Test system: CCRF-CEM
Test: NCI tumour cell line growth inhibition, 48 h
Calls of active or inactive are those of the source. No stated cut-off is given here; in the data, active = GI50 up to about 1.1 µM and inactive = higher.
Assign a class; possible classes are 1 for active, 0 for inactive

- Compound: "Nc1cc2c(c3ccccc13)C(CCl)CN2C(=O)c1cc2cc(NC(=O)c3cc4ccccc4o3)ccc2[nH]1 (stereo unspecified)"
  Class: 1
- Compound: "CCOC(=O)C1=C(C)NC(=S)NC1c1ccccc1 (stereo unspecified)"
  Class: 0

(Q) In this assay, the call recorded for O=C1NC(c2c(Cl)cccc2Cl)Nc2ccccc21 (stereo unspecified) was what?
(A) 0

(Q) In this assay, the call recorded for CC(CO)CCNc1ncnc2c1ncn2CCC(=O)O (stereo unspecified) was what?
(A) 0

(Q) In this assay, the call recorded for [O-]c1on[n+]2c1c(Nc1ccc(Cl)cc1)nc1ccccc12 was what?
(A) 0

(Q) In this assay, the call recorded for Cc1ccccc1NC(=S)N/N=C1\C(=O)Nc2ccccc21 was what?
(A) 0

(Q) In this assay, the call recorded for OC1C[C@H](c2ccccc2)C2(C(O)c3ccccc3C2O)[C@@H](c2ccccc2)C1 (stereo partly specified) was what?
(A) 0

(Q) In this assay, the call recorded for CC1=CC=CC(C)(C)CC1(O[Si](C)(C)C)C(F)(F)F (stereo unspecified) was what?
(A) 0

(Q) In this assay, the call recorded for CCCCC(=O)Nc1ccc2cc(C(=O)OC)c(ON3C(=O)c4ccccc4C3=O)nc2n1 was what?
(A) 0

(Q) In this assay, the call recorded for c1ccc2c(CN3CCN(Cc4c[nH]c5ccccc45)CC3)c[nH]c2c1 was what?
(A) 0

(Q) In this assay, the call recorded for c1c(N2CCOCC2)s[s+]c1N1CCOCC1 was what?
(A) 0
